Consider the following binders; for each one, report its Reactive oxygen species (ROS) generation in huLOX-1/HEK293 cells (IC50, nM).
- system-tested: Human LOX-1 full-length protein (human, UniProt P78380 1-273)
- experiment: cell-based or functional assay
Form entry: value (nM) — number only.

Give me measured Reactive oxygen species (ROS) generation in huLOX-1/HEK293 cells (IC50, nM), please, for this binder: FF5 (antibody, human IgG1, kappa, L234A L235A, V domains shown, Humaneered variant of E2E10, tested as full human IgG; Biotinylated for the neutrophil assay; also called LLG787; LLG787 (FF5)) VH: QVQLVQSGAEVKKPGASVKVSCKASGYTFTDYEVHWVRQAPGQGLEWMGAIHPGSGGAAYVQKFQGRVTMTRDTSISTAYMELSRLRSDDTAVYYCARWLPMDYWGQGTLVTVSS VL: DIQMTQSPSSVSASVGDRVTITCRASQGINNWLVWYQQKPGKAPKLLLYAASRLESGVPSRFSGSGSGTDYTLTISSLQPEDIATYYCQQYLITPYTFGQGTKLEIKR
4.8

Give me measured Reactive oxygen species (ROS) generation in huLOX-1/HEK293 cells (IC50, nM), please, for this binder: FF6 (antibody, human IgG1, kappa, L234A L235A, V domains shown, Humaneered variant of E2E10, tested as full human IgG; Biotinylated for the neutrophil assay; also called LLG788; LLG788 (FF6)) VH: QVQLVQSGAEVKKPGASVKVSCKASGYTFTDYEVHWVRQAPGQGLEWMGAIHPGSGGAAYVQKFQGRVTMTRDTSISTAYMELSRLRSDDTAVYYCARWLPIDYWGQGTLVTVSS VL: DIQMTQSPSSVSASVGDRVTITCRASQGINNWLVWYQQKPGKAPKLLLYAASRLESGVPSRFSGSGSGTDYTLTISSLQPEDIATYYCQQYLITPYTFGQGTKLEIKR
7.9

Give me measured Reactive oxygen species (ROS) generation in huLOX-1/HEK293 cells (IC50, nM), please, for this binder: FF3 (antibody, human IgG1, kappa, L234A L235A, V domains shown, Humaneered variant of E2E10, tested as full human IgG; Biotinylated for the neutrophil assay; also called LLG785; LLG785 (FF3)) VH: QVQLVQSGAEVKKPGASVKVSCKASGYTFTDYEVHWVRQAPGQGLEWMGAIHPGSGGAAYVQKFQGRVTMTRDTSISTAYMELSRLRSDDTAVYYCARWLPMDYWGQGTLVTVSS VL: DIQMTQSPSSVSASVGDRVTITCRASQGINNWLVWYQQKPGKAPKLLIYAASSLQSGVPSRFSGSGSGADYTLTISSLQPEDFATYYCQQYLITPYTFGQGTKLEIKR
7.4

This collection of values is drawn from patent US20170152313A1.
